Test system: K-562 leukemia
protocol.summary: NCI-60 one-dose screen, 48 h
run.conditions: 10 µM unless noted
This is part of a sample that, as a whole, favours compounds with a hit. Of some 83,000 tested, about 20% had one in any assay. Activity calls are given as the source filed them. How the source made its calls: active means growth percent below 10; inactive means the rest.
Possible outcomes: YES for active, NO for inactive

* C=C(C)[C@@H]1CC[C@]2(C(=O)NCCCCCCN(CCCN)CCCN)CC[C@]3(C)[C@H](CC[C@@H]4[C@@]5(C)CC[C@H](OCCCN)C(C)(C)[C@@H]5CC[C@]43C)[C@@H]12 | YES
* CC1(C)CC[C@]2(C(N)=O)CC[C@]3(C)C(=CC[C@@H]4[C@@]5(C)C/C(=C/c6cccnc6)C(=O)C(C)(C)[C@@H]5CC[C@]43C)[C@@H]2C1 | YES
* CC(C)c1ccc(C(=O)Nc2nc3ccc(O)cc3s2)cc1 | YES
* CCCN1CC(c2ccc(OC)c(OC)c2)=C(c2cn(C(=O)OCC)c3ccccc23)C1=O | NO
* CCOC(=O)c1nn(C2CCCCO2)c2ccc(NC(=O)CN3CCCC3)cc12 (centres undefined) | NO
* COCc1nc2ccccc2[nH]1 | NO
* COc1ccc2c(c1)C(C)Cc1c(Cl)ncnc1N2C (centres undefined) | YES
* C[C@H]1[C@H](C)CC[C@]2(C(=O)N3CCN(C)CC3)CC[C@]3(C)C(=CC[C@@H]4[C@@]5(C)C/C(=C/c6ccco6)C(=O)C(C)(C)[C@@H]5CC[C@]43C)[C@H]12 | NO
* N#Cc1ccc(-c2ccc(COc3ccc(CC4SC(=O)NC4=O)cc3)cc2)cc1 (centres undefined) | NO

###

Test system: A498 renal
protocol.summary: NCI-60 one-dose screen, 48 h
run.conditions: 10 µM unless noted
Compounds without any hit were thinned out: in the full panel of roughly 83,000, 20% have a hit. Calls of active or inactive are those of the source. How the source made its calls: active means growth percent below 10; inactive means the rest.
Labels: 1 (active), 0 (inactive)

- C[C@H]1[C@H](C)CC[C@]2(C(=O)O)CC[C@]3(C)C(=CC[C@@H]4[C@@]5(C)C/C(=C/c6ccco6)C(=O)C(C)(C)[C@@H]5CC[C@]43C)[C@H]12: 1
- Nc1cccc2c1C(=O)c1cccc(NC(=O)c3ccccc3)c1C2=O: 0
- O=C(N/N=C\c1cc(Cl)ccc1O)N/N=C/c1cc(Cl)ccc1O: 0
- COC(=O)c1cc2c(=O)[nH]cc3c2c(n1)CCC3: 0
- CC(C)CCSc1nc(N)nc2nc[nH]c12: 0
- CCN(CC)c1ccc2cc(C(Nc3ccc(Cl)cc3)c3nnnn3C(C)(C)C)c(=O)oc2c1 (centres undefined): 0
- C=C(C)[C@@H]1CC[C@]2(C(=O)OC)CC[C@]3(C)[C@H](CC[C@@H]4[C@@]5(C)CC/C(=N\OCCC(=NCCC#N)NOCCC#N)C(C)(C)[C@@H]5CC[C@]43C)[C@@H]12: 1
- O=C(NCCCNC(=O)OCc1ccc2cccc(O)c2n1)OCc1ccc2cccc(O)c2n1: 0
- COc1ccc(C2CC(c3cc(OC)c(OC)c(OC)c3)=NN2C(C)=O)cc1OCC(=O)Nc1nc2ccc(C(F)(F)F)cc2s1 (centres undefined): 0

###

Test system: NCI/ADR-RES ovarian
protocol.summary: NCI-60 one-dose screen, 48 h
run.conditions: 10 µM unless noted
About 83,000 compounds went through this panel and 20% of them were active in at least one assay; those are over-represented in the sample as a whole. Active and inactive are the calls of the source. How the source made its calls: active means growth percent below 10; inactive means the rest.
Outcome codes: t for active, f for inactive

* CCCCCCCCCCCCNC(=S)N/N=C/c1ccccc1O | f
* O=C1NC(=O)C(Cc2ccccc2)(Cc2ccccc2)N1 | f
* O=C(N[C@@H]1CCCc2ccccc21)[C@H](CCC(=O)N1CCN(C2CCCCC2)CC1)N1C(=O)[C@@H](N2C(=O)OC[C@@H]2c2ccccc2)[C@H]1/C=C/c1ccccc1 | f
* C=C(C)[C@@H]1CC[C@]2(C(=O)N3CCN(C)CC3)CC[C@]3(C)[C@H](CC[C@@H]4[C@@]5(C)C/C(=C/c6ccncc6)[C@H](O)C(C)(C)[C@@H]5CC[C@]43C)[C@@H]12 | t

These entries and their values trace back to PubChem BioAssay (NCI).
